List of AUC values.
test: Pharmacokinetics in rat (iv and PO); assay type: in vivo; settings: in vivo, PO 2.0 mg/kg, read-out: AUC PO

| COMPOUND | AUC, µM·h |
| --- | --- |
| COCCCOc1cc2c(cc1OC)-c1cc(=O)c(C(=O)O)cn1[C@H]1[C@@H]2CCC1(C)C [Compound 1.1] | 4.5 |
| COCCCOc1cc2c(cc1OC)-c1c(F)c(=O)c(C(=O)O)cn1[C@H]1[C@@H]2CCC1(C)C [Compound 3.1] | 19.6 |
| COCCCOc1cc2c(cc1OC)-c1cc(=O)c(C(=O)O)cn1[C@H]1[C@@H]2OCC1(C)C [Compound 4.1] | 10.2 |

----------
List of bioavailability values.
test: Pharmacokinetics in mice (iv and PO); format: in vivo; conditions: mouse, in vivo, iv 1.0 mg/kg, PO 2.0 mg/kg, read-out: Oral BA (% F)

| COMPOUND | bioavailability, % |
| --- | --- |
| COCCCOc1cc2c(cc1OC)-c1cc(=O)c(C(=O)O)cn1[C@H]1[C@@H]2CCC1(C)C [Compound 1.1] | 59 |
| COCCCOc1cc2c(cc1OC)-c1cc(=O)c(C(=O)O)cn1[C@H]1[C@@H]2OCC1(C)C [Compound 4.1] | 100 |
| COCCCOc1cc2c(cc1OC)-c1c(F)c(=O)c(C(=O)O)cn1[C@H]1[C@@H]2CCC1(C)C [Compound 3.1] | 87 |

----------
List of Vd values.
assay: Pharmacokinetics in mice (iv and PO); type: in vivo; conditions: mouse, in vivo, iv 1.0 mg/kg, read-out: Vss

| SMILES STRUCTURE | Vd (L/kg) |
| --- | --- |
| COCCCOc1cc2c(cc1OC)-c1cc(=O)c(C(=O)O)cn1[C@H]1[C@@H]2OCC1(C)C | 1.5 |
| COCCCOc1cc2c(cc1OC)-c1cc(=O)c(C(=O)O)cn1[C@H]1[C@@H]2CCC1(C)C | 3.6 |
| COCCCOc1cc2c(cc1OC)-c1c(F)c(=O)c(C(=O)O)cn1[C@H]1[C@@H]2CCC1(C)C | 1 |

----------
List of AUC values.
test: Pharmacokinetics in rat (iv and PO); type: in vivo; settings: in vivo, iv 1.0 mg/kg, read-out: AUC iv
PROPERTY LABEL: AUC (µM·h)

| MOLECULE | RESULT UNIT | MEAS VALUE |
| --- | --- | --- |
| COCCCOc1cc2c(cc1OC)-c1cc(=O)c(C(=O)O)cn1[C@H]1[C@@H]2OCC1(C)C [Compound 4.1] | µM·h | 8 |
| COCCCOc1cc2c(cc1OC)-c1c(F)c(=O)c(C(=O)O)cn1[C@H]1[C@@H]2CCC1(C)C [Compound 3.1] | µM·h | 16.6 |
| COCCCOc1cc2c(cc1OC)-c1cc(=O)c(C(=O)O)cn1[C@H]1[C@@H]2CCC1(C)C [Compound 1.1] | µM·h | 2.5 |

----------
assay: Pharmacokinetics in rat (iv and PO); format: in vivo; conditions: in vivo, iv 1.0 mg/kg, read-out: Vss
List of Vd values.

| SMILES STRUCTURE | Vd / L/kg |
| --- | --- |
| COCCCOc1cc2c(cc1OC)-c1cc(=O)c(C(=O)O)cn1[C@H]1[C@@H]2OCC1(C)C | 0.75 |
| COCCCOc1cc2c(cc1OC)-c1cc(=O)c(C(=O)O)cn1[C@H]1[C@@H]2CCC1(C)C | 1.3 |
| COCCCOc1cc2c(cc1OC)-c1c(F)c(=O)c(C(=O)O)cn1[C@H]1[C@@H]2CCC1(C)C | 0.6 |
